Tested System: Pim-2 (Homo sapiens (Human), UniProt Q9P1W9)
Sequence (Q9P1W9 whole entry): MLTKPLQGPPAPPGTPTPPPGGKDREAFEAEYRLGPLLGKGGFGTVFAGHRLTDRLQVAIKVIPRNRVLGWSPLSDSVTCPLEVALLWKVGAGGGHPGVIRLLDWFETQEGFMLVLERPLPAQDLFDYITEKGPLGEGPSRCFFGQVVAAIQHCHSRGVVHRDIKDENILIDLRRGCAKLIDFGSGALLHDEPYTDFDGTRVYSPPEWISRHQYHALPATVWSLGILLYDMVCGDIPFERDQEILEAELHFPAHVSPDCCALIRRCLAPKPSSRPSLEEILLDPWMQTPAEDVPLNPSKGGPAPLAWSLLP
Value Kind: IC50

Use these answered entries as a reference point.
| Line Notation | Recorded Value |
| --- | --- |
| COCCO[C@H]1CCN(c2cnc3c(C(=O)Nc4cnccc4[C@@H]4C[C@H](C)C[C@H](N)C4)ccc(F)c3c2)C[C@@H]1F | ≤ 100 nM |
| Cc1ccncc1N(C)c1cnc2c(C(=O)Nc3cnccc3[C@@H]3C[C@H](C)C[C@H](N)C3)ccc(F)c2c1 | ≤ 100 nM |

Shifting focus to the compound that follows.
Bench note: what IC50 did C[C@@H]1C[C@H](N)C[C@H](c2ccncc2NC(=O)c2ccc(F)c3cc(N4CCN(S(C)(=O)=O)C[C@@H]4C)cnc23)C1 show?
100 to 1000 nM

###

Tested System: Pim-1 (Homo sapiens (Human), UniProt P11309)
Sequence (P11309 whole entry): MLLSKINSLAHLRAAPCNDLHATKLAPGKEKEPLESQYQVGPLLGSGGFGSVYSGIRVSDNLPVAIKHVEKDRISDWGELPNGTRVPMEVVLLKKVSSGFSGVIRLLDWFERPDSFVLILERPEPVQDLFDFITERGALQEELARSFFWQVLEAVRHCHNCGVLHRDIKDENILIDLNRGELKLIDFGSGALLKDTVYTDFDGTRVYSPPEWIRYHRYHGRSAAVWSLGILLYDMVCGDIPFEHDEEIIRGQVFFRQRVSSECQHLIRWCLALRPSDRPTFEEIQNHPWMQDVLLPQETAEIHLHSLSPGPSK
Value Kind: IC50

| Compound | Recorded Value |
| --- | --- |
| CC(C)N(C)c1cnc2c(C(=O)Nc3cnccc3[C@@H]3C[C@H](C)C[C@H](N)C3)ccc(F)c2c1 [Example 56] | ≤ 10 nM |
| C[C@@H]1C[C@H](N)C[C@H](c2ccncc2NC(=O)c2ccc(F)c3cc(N4CCO[C@@H](C)C4)cnc23)C1 [Example 38] | ≤ 10 nM |
| COC1(C)CN(c2cnc3c(C(=O)Nc4cnccc4[C@@H]4C[C@H](C)C[C@H](N)C4)ccc(F)c3c2)C1 [Example 118] | ≤ 10 nM |
| COC[C@@H]1CCCN1c1cnc2c(C(=O)Nc3cnccc3[C@@H]3C[C@H](C)C[C@H](N)C3)ccc(F)c2c1 [Example 48] | ≤ 10 nM |
| COC1CCCN(c2cnc3c(C(=O)Nc4cnccc4[C@@H]4C[C@H](C)C[C@H](N)C4)ccc(F)c3c2)CC1 (stereo partly shown) [Example 101] | ≤ 10 nM |

Checklist item: IC50 tested on Pim-1 (Homo sapiens (Human), UniProt P11309), entry C[C@@H]1C[C@H](N)C[C@H](c2ccncc2NC(=O)c2ccc(F)c3cc(N4CCc5ccccc54)cnc23)C1 [Example 79] , value?
≤ 10 nM

Next compound: C[C@@H]1C[C@H](N)C[C@H](c2ccncc2NC(=O)c2ccc(F)c3cc(N4CCC[C@H]4C)nnc23)C1 [Example 95]
≤ 10 nM

###

Tested System: UniProtKB Q86V86
Assay Text: Pim-3 kinase assay
Type: biochemical
Recorded Conditions: 1 mM ATP; read-out: PIM3 IC50
pIC50: −log10 of the molar value.
Each entry below carries its reported pIC50.

| Compound | Recorded Value |
| --- | --- |
| CO[C@H]1C[C@@H](C)N(c2cnc3c(C(=O)Nc4cnccc4[C@@H]4C[C@H](C)C[C@H](N)C4)ccc(F)c3c2)C1 [Example 158] | ≥ 8.00 |
| C[C@@H]1C[C@H](N)C[C@H](c2ccncc2NC(=O)c2ccc(F)c3cc(-c4cc(F)cc5cccnc45)cnc23)C1 [Example 59] | 7.30 to 8.00 |
| C[C@@H]1C[C@H](N)C[C@H](c2ccncc2NC(=O)c2ccc(F)c3cc(N4CCCC[C@H]4C)cnc23)C1 [Example 169] | ≥ 8.00 |
| C[C@@H]1C[C@H](N)C[C@H](c2ccncc2NC(=O)c2ccc(F)c3cc(N4CC[C@@H]4C)cnc23)C1 [Example 166] | ≥ 8.00 |
| C[C@@H]1C[C@H](N)C[C@H](c2ccncc2NC(=O)c2ccc(F)c3cc(N4CCN(C5CC5)C(=O)C4)cnc23)C1 [Example 114] | ≥ 8.00 |

Checklist item: pIC50 tested on UniProtKB Q86V86, entry COC(=O)N1C[C@H]2C[C@@H]1CN2c1cnc2c(C(=O)Nc3cnccc3[C@@H]3C[C@H](C)C[C@H](N)C3)ccc(F)c2c1 [Example 90] , value?
≥ 8.00

###

Tested System: Pim-3 (Homo sapiens (Human), UniProt Q86V86)
pIC50: −log10 of the molar value.
Value Kind: pIC50

Use these answered entries as a reference point.
| Line Notation | Tested System | pIC50 |
| --- | --- | --- |
| C[C@@H]1C[C@H](N)C[C@H](c2ccncc2NC(=O)c2ccc(F)c3cc(N(C)c4ccncc4F)cnc23)C1 | Pim-3 (Homo sapiens (Human), UniProt Q86V86) | ≥ 8.00 |
| C[C@@H]1C[C@H](N)C[C@H](c2ccncc2NC(=O)c2ccc(F)c3cc(N(C)[C@@H]4CCOC4)cnc23)C1 | Pim-3 (Homo sapiens (Human), UniProt Q86V86) | ≥ 8.00 |
| C[C@@H]1C[C@H](N)C[C@H](c2ccncc2NC(=O)c2ccc(F)c3cc(N4CCSCC4)cnc23)C1 | Pim-3 (Homo sapiens (Human), UniProt Q86V86) | ≥ 8.00 |

Shifting focus to the molecule that follows.
Bench note: what pIC50 did C[C@@H]1C[C@H](N)C[C@H](c2ccncc2NC(=O)c2ccc(F)c3cc(N(C)C)cnc23)C1 show?
≥ 8.00

###

pIC50 values recorded for Pim-2 (Homo sapiens (Human), UniProt Q9P1W9)
pIC50: −log10 of the molar value.

Use these answered entries as a reference point.
| Compound | Tested System | Recorded Value |
| --- | --- | --- |
| C[C@@H]1C[C@H](N)C[C@H](c2ccncc2NC(=O)c2ccc(F)c3cc(N4CCC(C#N)CC4)cnc23)C1 | Pim-2 (Homo sapiens (Human), UniProt Q9P1W9) | 6.00 to 7.00 |
| CO[C@@H]1CCN(c2cnc3c(C(=O)Nc4cnccc4[C@@H]4C[C@H](C)C[C@H](N)C4)ccc(F)c3c2)C1 | Pim-2 (Homo sapiens (Human), UniProt Q9P1W9) | 6.00 to 7.00 |
| C[C@@H]1C[C@H](N)C[C@H](c2ccncc2NC(=O)c2ccc(F)c3cc(N4CCCc5cccc(F)c54)cnc23)C1 | Pim-2 (Homo sapiens (Human), UniProt Q9P1W9) | ≥ 7.00 |
| CCOC(=O)N1CCN(c2cnc3c(C(=O)Nc4cnccc4[C@@H]4C[C@H](C)C[C@H](N)C4)ccc(F)c3c2)CC1 | Pim-2 (Homo sapiens (Human), UniProt Q9P1W9) | 6.00 to 7.00 |

Bench note: what pIC50 did C[C@@H]1C[C@H](N)C[C@H](c2ccncc2NC(=O)c2ccc(F)c3cc(N4C[C@H]5C[C@@H]4CN5S(C)(=O)=O)cnc23)C1 show?
6.00 to 7.00

Next compound: COc1ccc(N(C)c2cnc3c(C(=O)Nc4cnccc4[C@@H]4C[C@H](C)C[C@H](N)C4)ccc(F)c3c2)cc1
≥ 7.00

###

Tested System: Pim-2 (Homo sapiens (Human))
Assay Text: Pim-2 kinase assay
Assay type: biochemical
Recorded Conditions: 1 mM ATP; read-out: PIM2 IC50
pIC50: −log10 of the molar value.
Each entry below carries its reported pIC50.

| Molecule | Value Kind | Recorded Value |
| --- | --- | --- |
| C[C@@H]1C[C@H](N)C[C@H](c2ccncc2NC(=O)c2ccc(F)c3cc(N(C)c4ccccc4)cnc23)C1 [Example 83] | pIC50 | ≥ 7.00 |

Checklist item: pIC50 tested on Pim-2 (Homo sapiens (Human)), entry C[C@@H]1C[C@H](N)C[C@H](c2ccncc2NC(=O)c2ccc(F)c3cc(N4CC[C@@H](C#N)C4)cnc23)C1 [Example 8] , value?
≥ 7.00

Next molecule: CC(C)CN1CCN(c2cnc3c(C(=O)Nc4cnccc4[C@@H]4C[C@H](C)C[C@H](N)C4)ccc(F)c3c2)CC1=O [Example 117]
≥ 7.00

Next molecule: COC[C@@H]1CCCN1c1cnc2c(C(=O)Nc3cnccc3[C@@H]3C[C@H](C)C[C@H](N)C3)ccc(F)c2c1 [Example 48]
6.00 to 7.00

###

Tested System: Pim-2 (Homo sapiens (Human), UniProt Q9P1W9)
Value Kind: IC50

Use these answered entries as a reference point.
| Compound | Recorded Value |
| --- | --- |
| COC1CCCN(c2cnc3c(C(=O)Nc4cnccc4[C@@H]4C[C@H](C)C[C@H](N)C4)ccc(F)c3c2)CC1 (stereo partly shown) | ≤ 100 nM |
| CC1CN(c2cnc3c(C(=O)Nc4cnccc4[C@@H]4C[C@H](C)C[C@H](N)C4)ccc(F)c3c2)C1 | ≤ 100 nM |
| C[C@@H]1C[C@H](N)C[C@H](c2ccncc2NC(=O)c2ccc(F)c3cc(N4CC5(CC(O)C5)C4)cnc23)C1 | ≤ 100 nM |

Checklist item: IC50 tested on Pim-2 (Homo sapiens (Human), UniProt Q9P1W9), entry C[C@@H]1C[C@H](N)C[C@H](c2ccncc2NC(=O)c2ccc(F)c3cc(-c4c(F)cccc4C#N)cnc23)C1 , value?
≤ 100 nM

###

Tested System: Pim-2 (Homo sapiens (Human))
pIC50: −log10 of the molar value.
Each entry below carries its reported pIC50.

Use these answered entries as a reference point.
| Molecule | pIC50 |
| --- | --- |
| CC1CN(c2cnc3c(C(=O)Nc4cnccc4[C@@H]4C[C@H](C)C[C@H](N)C4)ccc(F)c3c2)CC(C)O1 (some centres unmarked) | 5.00 to 6.00 |
| C[C@@H]1C[C@H](N)C[C@H](c2ccncc2NC(=O)c2ccc(F)c3cc(N4CC[C@H](C#N)C4)cnc23)C1 | ≥ 7.00 |
| COc1ccncc1N(C)c1cnc2c(C(=O)Nc3cnccc3[C@@H]3C[C@H](C)C[C@H](N)C3)ccc(F)c2c1 | ≥ 7.00 |

Bench note: what pIC50 did C[C@@H]1C[C@H](N)C[C@H](c2ccncc2NC(=O)c2ccc(F)c3cc(N4CCOCC4)cnc23)C1 show?
6.00 to 7.00

Next molecule: C[C@@H]1C[C@H](N)C[C@H](c2ccncc2NC(=O)c2ccc(F)c3cc(N4CC[C@H]4C)cnc23)C1
≥ 7.00

These entries and their values trace back to patent US9920032B2.
